Assay Text: Aggregation property of the compound in ammonium acetate buffer at pH 7.6 assessed as light scattering intensity counts at 100 uM in presence of Triton X-100 by dynamic light scattering method
Assay type: physicochemical
Condition Details: pH 7.6, 100 µM
Quantity: Activity (kCounts)
Give bare numbers, in kCounts.

// below: answered compounds
For the compound shown here, Cc1ccc(-c2nnc(NC(=O)c3ccccc3Cl)o2)c(C)c1 , give the reported Activity.
115

For the compound shown here, CSc1ccc2nc(Nc3nc4ccc(NC(C)=O)cc4s3)sc2c1 , give the reported Activity.
122

Now look at this one.
For the compound shown here, CCSc1ccc(C(=O)Nc2nnc(-c3ccc4c(c3)CCCC4)o2)cc1 , give the reported Activity.
158
